# Tgt: T1, huCD4-HIS (human, UniProt P01730 26-390, limits assumed)
# T1 construct: the ELISA binning is not described in the text of this stretch
# Test: ELISA binning, competitor Ibalizumab; 100 ng/mL huCD4-HIS, anti-HIS HRP detection; background 45, max binding 3000000
Readout name: Ibalizumab ELISA binning signal
Just the number.

Ask: # return recorded Ibalizumab ELISA binning signal for input 75110_06D16A (antibody, V domains shown, Tested as non-clonal AlivaMab Mouse Kappa hybridoma supernatant: human variable domains and human kappa, mouse Fc (detected with anti-mouse Fc)) VH: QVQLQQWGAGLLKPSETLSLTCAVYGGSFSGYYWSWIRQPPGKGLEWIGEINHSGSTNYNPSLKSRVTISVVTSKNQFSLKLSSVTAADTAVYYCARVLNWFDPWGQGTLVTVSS VL: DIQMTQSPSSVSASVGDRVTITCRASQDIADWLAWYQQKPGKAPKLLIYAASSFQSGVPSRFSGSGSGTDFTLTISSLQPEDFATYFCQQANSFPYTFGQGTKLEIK
Reply: 1.27e+06
